target: human TRPM8; assay: TRPM8 Protocol-FLIPR Assay (intracellular Ca2+ in HEK-293 cells stably transfected with human TRPM8); settings: HEK-293 cells stably transfected with human TRPM8, Fluo-4 AM, read-out: TRPM8 EC 50 Value
pEC50: −log10 of the molar value.
Threshold check on pEC50: at or above 6 gives Met, strictly below gives Not met.

Some solved cases for reference:
>>> df
                                   compound    tested_on    label
0  CC(C)[C@@H]1CC[C@@H](C)C[C@H]1OC(=O)CC(NCCN)c1ccccc1 (stereo partly shown)  human TRPM8  Not met
1  CC(C)[C@@H]1CC[C@@H](C)C[C@H]1C(=O)OC[C@@H](NC(=O)[C@H](C)N)c1ccccc1  human TRPM8      Met
2  CC(C)[C@@H]1CC[C@@H](C)C[C@H]1OC(=O)C[C@@H](NC(=O)[C@@H](C)N)c1ccccc1  human TRPM8      Met
3  CC(C)[C@@H]1CC[C@@H](C)C[C@H]1C(=O)OC[C@@H](NC(=O)CNC(=O)OC(C)(C)C)c1ccccc1  human TRPM8  Not met

Hi, just wondering whether CC(C)[C@@H]1CC[C@@H](C)C[C@H]1OC(=O)C(Cc1ccccc1)NC(=O)CN (stereo partly shown) shows pEC50 of 6 or higher.
Not met

Hi, just wondering whether CC(C)[C@@H]1CC[C@@H](C)C[C@H]1C(=O)OC[C@H](NC(=O)CN)c1ccccc1 shows pEC50 of 6 or higher.
Not met

Hi, just wondering whether CC(C)[C@@H]1CC[C@@H](C)CC1OC(=O)c1ccccc1NC(=O)CN (stereo partly shown) shows pEC50 of 6 or higher.
Not met

Hi, just wondering whether CC(C)[C@@H]1CC[C@@H](C)C[C@H]1OC(=O)[C@@H](NC(=O)CN)c1ccccc1 shows pEC50 of 6 or higher.
Not met

Hi, just wondering whether CC(C)[C@@H]1CC[C@@H](C)C[C@@H]1OC(=O)C[C@@H](NC(=O)CN)c1ccccc1 shows pEC50 of 6 or higher.
Not met

Hi, just wondering whether CC(C)[C@@H]1CC[C@@H](C)C[C@H]1OC(=O)CC(NCc1ccccn1)c1ccccc1 (stereo partly shown) shows pEC50 of 6 or higher.
Not met

Hi, just wondering whether CC1CCC(C(C)C)C(OC(=O)CC(N)c2ccccc2)C1 (stereo not shown) shows pEC50 of 6 or higher.
Not met

Hi, just wondering whether CC(C)[C@H]1CC[C@@H](C)C[C@@H]1OC(=O)C[C@@H](NC(=O)CN)c1ccccc1 shows pEC50 of 6 or higher.
Not met

Hi, just wondering whether CC(C)[C@@H]1CC[C@@H](C)C[C@H]1COC(=O)C(NC(=O)CN)c1ccccc1 (stereo partly shown) shows pEC50 of 6 or higher.
Not met

###

Target: human TRPM8
Test: TRPM8 Protocol-FLIPR Assay (intracellular Ca2+ in HEK-293 cells stably transfected with human TRPM8)
Details: HEK-293 cells stably transfected with human TRPM8, Fluo-4 AM, read-out: TRPM8 EC 50 Value
Experimental: Trypsin was inactivated by addition of 8 ml growth medium. Cells were transferred to a 50 ml tube and centrifuged at 850 rpm for 3 minutes to remove medium. After centrifugation, a pellet of cells was formed in the bottom of the tube separating them from the supernatant solution. […] Fluo-4 AM is a fluorescent dye used for quantifying cellular Ca^2+ concentrations in the 100 nM to 1 microM range. […]
OBSERVED PROPERTY: log10 EC50 (log10 of the value in µM)
Note: values are log10 of EC50 expressed in µM.

These recorded examples may help you get a feel for the data.
                                   molecule  test_result
0  CC(C)[C@@H]1CC[C@@H](C)C[C@H]1C(=O)OC[C@@H](NC(=O)CN)c1ccccc1        -1.19
1  CC(C)[C@@H]1CC[C@@H](C)C[C@H]1OC(=O)[C@@H](NC(=O)[C@H](C)N)c1ccccc1         1.52
2  CC(C)[C@@H]1CC[C@@H](C)C[C@H]1C(=O)OC[C@@H](NC(=O)[C@@H](C)N)c1ccccc1.Cl        -2.09
3  CC(C)[C@@H]1CC[C@@H](C)C[C@H]1C(=O)OC[C@@H](OC(=O)[C@@H]1C[C@H](C)CC[C@H]1C(C)C)c1ccccc1         2.14
4  CC(C)[C@@H]1CC[C@@H](C)C[C@H]1C(=O)OC[C@@H](O)c1ccccc1        -0.23

Then this molecule:
The measured log10 EC50 associated with CC1CCC(C(C)C)C(OC(=O)C(N)c2ccccc2)C1 (stereo not drawn) reads 1.78
